assay: Selectivity ratio of GI50 for human MRC5 cells to GI50 for human MDA-MB-231 cells; assay type: ADME, cell-based; conditions: MRC5 cells and MDA-MB-231 cells, read-out: RatioGI50
PROPERTY_MEASURED: selectivity ratio
I'd appreciate a reply containing only the number, no unit.

Item OC(CNc1ccccc1)COc1ccc(C2=Cc3ccc(OCC(O)CNc4ccccc4)cc3OC2)cc1 (racemic) : provide selectivity ratio
2

Item CC(C)NCC(O)COc1cccc2ccccc12 (stereo not given) [PROPRANOLOL] : provide selectivity ratio
0.7

Item OC(CNCc1ccccc1)COc1ccc(C2=Cc3ccc(OCC(O)CNCc4ccccc4)cc3OC2)cc1 (racemic) : provide selectivity ratio
2.4

Item Oc1ccc(C2=Cc3ccc(O)cc3OC2)cc1 [IDRONOXIL] : provide selectivity ratio
1.7

Item OC(COc1ccc(C2=Cc3ccc(OCC(O)CN4CCCCC4)cc3OC2)cc1)CN1CCCCC1 (racemic) : provide selectivity ratio
4.4
